Reference for the values: the supplement of paper PMC9170038

System: K4 kissing-loop RNA reporter
Experiment: apparent KD of K4 kissing-loop reporter; higher = weaker reporter binding
Conditions: Eterna round: R107; input ligand: theophylline 20 uM
Documented apparent KD of K4 kissing-loop reporter across a set of sequences

sequence-string | measure-unit | apparent KD of K4 kissing-loop reporter
AGACCUCAGUGAUGUUGAGGUAACACUGAUACCAGCGACUUAAUUCGCCCUUGGCAGCAGUCCACCGAGGUAUCUGAUUAGGUCA [#24 K4 Theophylline A Exclusion] | nM | 273
AGAGAUAUAUGAGGAUAUGAGAUAGUUAAUGAGUGAGUUUUAGUGUUGUUUGGUUAGUGAUGUUAUUUAGAAGGCGUGAGUGAUG [grrfullin] | nM | 80
AUUUAUGUAUCAGGAUAUUAGUGAUGUUUGUUUUUGUUAGUGAUGUUGAUAUUUGUUUUAUGUAUUUAAGAAGGGAUUGAGAUGU [wwewmullin] | nM | 24.2
AGCUCAGCGUGACUCGAUAAGAGUCACAAACGAGGACCGGUACGGCCGCCACUCGAAAUAAAGGGAGUGAUGUUCUCGCUGAGCA [#SwitchBubble 4 #StaticStem #K4Late] | nM | 274
UACUAUAUUCUGUCGUUUAUAUUAUUUUGUCAGGAUAUCGUUUAUUCGAGAAGGGACACUAUCUAGUGAUGUUAGAUUUUUCUUU [JR_Nu_ExcFMNA_Sub029] | nM | 108
AAACGUUGGUGCGAUACCAGCUGAUCGGAAACGAUCUUGCUGGAGUGAUGUUCCAGGAAAAGCCCUUGGCAGCGCACCGACGAAA [MAT - Same State Theophlline B - Mod of Eli - D26] | nM | 869
AAGGUCACUGCUACAGUGAUGUUGUGGGAGCAGGAUAUGCAGAAAUGCAGAAGGGCUCGCUCCAGGUGACCGAAUGAAACAUUCA [whbob_SS_FMNA__2th175] | nM | 887
UCUGUUGUAUAUGAUACCAGCAGUGAGAGACAGGAAGUAUAGUGAUGUUAUAUGAGAGAAUGCCCUUGGCAGCGUGUGCGGUUGG [SSTheophylB.W] | nM | 148
GGCACGGUGGCGCGACUGCCGUGCGCUUGGGAGGAUAUGUUUCGUGACAGAAGGCCCAGUGAUGUUGGGUCUGUUCAAAAGGACU [Gegearer] | nM | 130
AGAACUGUCUGAGAUACCAGCUAAGGAGUGAUGUUCCUAGGUCCACGAAAGUGGACCCAUAGCCCUUGGCAGCUCAGACAGUUCA [#23 K4 Theophylline B Same State] | nM | 674
UAUUAAUUGACGGCCGCCACUAUUGUGAUUUAUUUGUUUGAGUGAUGUUUUGAUGUUUGAUUUUGUAGGACCGGGUUAUGUGUUA [zwzcmullin] | nM | 816
AUGCGACGUGCGGCCGCCACUCGGAUGCGAGUGAUGUUCGCGGGCCGGCCGCAAGGCCGGCAUUCGAGGACCGGGCAUCGGUGUA [#2 Same State - Tryptophan B Attempt #1 (HarryS)] | nM | 493
UGUGAACAAAAGUAGAGUGGACCACUAUAGCGAGGACCGGUACGGCCGCCACUCGUGCAUGAAUUCAGUGAUGUUGAAAAGAGCU [whbob_EX_Tryp_A_t12] | nM | 364
GGAUAGGAUAGAGGAUAUGGUUUAUGCAGGAAUAACUUAUCGUGUAAAUCCAUAGGGAGUGAUGUUCCAGAAGGCUGUCCUAUCG [MatMod 13 - Jieux - Exclusion - FMN B] | nM | 250
AAUCAAUACAGAAGGAGCGUGACAGUUGCGAGUGUAAUUUUAGCUAGUGAUGUUAGCAUUUCACAGGUAGGUCGCUGUACAUUUA [#05 K4 Arginine B Same State] | nM | 140
AGGGAUGUUAAAGGAUAUAGAAAGUGAUGUUAGAAAGUGAGUGAUGUUGAUGUAAGUGAUGAUAUGUUAGAAGGUUAACAAAACG [abc] | nM | 169
AAAGUGUCAGCACGAGUGAUGUUCGACGAUACCAGCCUCGAUAGAGGCCCUUGGCAGCGUAAACCAAGGGCUGGCACAAAAUAAA [#SwitchBubble 6 #K4Early] | nM | 439
GUAUCGCUAGGAGGAUAUUUCAUAUAACAUAUAAAUGGAUAUGCGGAGUGAUGUUCCGAUUUACGGAAAGAAGGCCUAGUGAUAC [FMN B 19] | nM | 207
AGGCACGAGCAAGGAUAUCGAGUAGAGUGAUGUUCUGCCUGGGUUGGCCCGUAAGGGCCUUCCCAGCGAGAAGGUGCUCGUGCCU [#2 Same State - FMN A Attempt #10 (HarryS)] | nM | 679
CUUAUGGAGUGUCGUACCGGACACUGGGAAGGAGCGCAAUUCUUUGCAGGUAGGUCGCCCAGUGAUGUUGGGUGGCGCUGUCGAA [Xebeor] | nM | 266
AAUUCUUAUCUUAGUAGAUUUCUAAUUAAACGAGGACCGGUACGGCCGCCACUCGGUUAUGAGUGAUGUUCAUGGAAUUACAUAA [JR_SSTryptoA_Sub018] | nM | 486
UGACUGGACUGAAGGAGCGUUGAAGGAGCGUAAGUAGUGAUGUUGCUUACAGGUAGGUCGCAGCAGGUAGGUCGCAGUCUAGUCU | nM | 54.3
AAUUUAUUAACUGAUACCAGACUUAAUAAAUUGUAAAUUACUAGUGAUGUUAGUGAAUUUGUCCCUUGGCAGCAGUAUUUAUUAA [JR_ExcTheophyB_Sub009] | nM | 141

---

Test system: K4 kissing-loop RNA reporter;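 note: bound reporter read as fluorescence of individual clusters on recovered sequencing chips by microscopy, with normalized cluster intensities fitted with a binding model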
Test: apparent KD of K4 kissing-loop reporter; higher = weaker reporter binding
Conditions: Eterna round: R107; input ligand: none
Documented apparent KD of K4 kissing-loop reporter across a set of sequences

sequence-string | apparent KD of K4 kissing-loop reporter, µM
AGUGAUGUUCCUCCUCUUGGUCUUGGUGGGCGAGGACCGGUACGGCCGCCACUCGAUGUGGGAGUGAUGUUUCCAUAUGAUGUUU [Tryptophan A] | 0.621
UUAUAUACGAGUGAUGUUCGUUAUUUAUCAGAGGAUAUGCUUAAAUGCAGAAGGCUGUUUUUCUAUUUGAUAUUAAAUUUUAUAA [JR_Nu3_ExcFMNA_Sub027] | 0.0696
GUGGUGGUGGCGGCCGCCACUGAAGAUAAUGAGUGAUGUUCAAGUGAUGUUAAUAAGAACAGUAUCAGGACCGGGCCACCACCAC [Default title] | 0.0341
ACUGUACCGGGAAGGAGCGUGAAUGAGAAUGGAUAUAGUGAUGUUAUGUAUACGAACGAAUCGCAGGUAGGUCGCCCGGAUCCCU [SSArgB.aC] | 0.399
AAUUAAUACAGAAGGAGCGUGUAUUUAACUACAAUUAUCUUAGCGAGUGAUGUUCGUUUUACACAGGUAGGUCGCUGUAUAUUUA [JR_ExcArginiB_Sub010] | 0.235
CUGUACAUCUCGGCCGCCACUGACCUAAGUGAUGUUAGGAAUGAAACCUAGUGAUGUUAGCAAACCAGGACCGGGAGGUGUGCAG [KL-SSTryp-B4 #Double Kiss] | 0.0832
AAACAUUGGUCUGAUACCAGCUGAUCGGAAACGAUCUUGCUGGAGUGAUGUUCCAGGAAAAGCCCUUGGCAGCAGACCGAUGAAA [MAT - Same State Theophlline B - Mod of Eli - D24] | 1.03
CGCAAGCAGCCAGUGAUGUUGGCCGCCUUGCGAGGACCGGUACGGCCGCCACUCGAAGGCGGCUACUGAUAAUCCGUCUAACGGA [KL-XTryp-A15] | 0.102
ACCUCACAGUGAUGUUGUGAGCCGAUAGUGAAGGAUAUUGUAAAGUCAAGAAGGUCAUGUCAGUCACAAAACGUUAAGCCUCGCA [theeternabot_exclusion_KL_FMN_A_19] | 0.254
AAAGUGUCAGCACGAGUGAUGUUCGACGAUACCAGCCUCGAUAGAGGCCCUUGGCAGCGUAAACCAAGGGCUGGCACAAAAUAAA [#SwitchBubble 6 #K4Early] | 1.35
UGUACCGAGUCAGGAUAUGGUAUACCGGAAACGGACCAGUGAUGUUGGAGGCGAAAGCCAUAAAAUCCAGAAGGGACUUGGUACU [FmnBS 19 #SwitchBubble #StaticStem #DoubleMagnetSystem] | 0.614
GCAGGAUGAGGAGGAGGAUGAAUUACUGAAGGAGCGCAUAUUUUUGCAGGUAGGUCGCGGUAAAGAAGUAUAGUGAUGUUAUAUA [SSArgA.K] | 0.267
CACUUACGUAGUGAUGUUACGAUCUCUGAUACCAGACAACUCUAAGUCCCUUGGCAGCAGUCAUUUUGCUUAUUAUUUACUCAAA [JR_ExcTheophyA_Sub017] | 0.73
CAUUGUACACGGUGCGAAGACCCAAUGGAUACCAGCAAUACAUUAUGCCCUUGGCAGCCAAGAGUGAUGUUCGACGGACUAGAUU [theeternabot_sameState_KL_Theo_A_4] | 0.29
GUGCAGUGAUGUUGCACGAGGAAAGACGAUACCAGCCGUAAAUAAGGCCCUUGGCAGCGUGGGCUAGCAUAAAGCAUGCUAGUCU [Edbemavela] | 0.113
AGUGAUGUUGUGUGAUGUUAGUGAAGUGAUCGAGGACCGGUACGGCCGCCACUCGAGUGAUGAGUGAGUGAUGUUUGUUUAGUGG [#17 K4 Tryptophan A Same State] | 0.206
UGUACCGAGUCAGGAUAUGGCGUCGAAAGACGAAUCCUAGUGAUGUUAGCGAUCUGCGAAAGCAGUCCAGAAGGGACUUGGUACU [FmnBS 26 C50] | 0.438
AAGGGCUAGGCGGCCGCCACUGGUUGUGAACACAUACGAGCCAGUGAUGUUGGUAUUGUGUGCGGCAGGACCGGGCCUAGCCGAA [Exclusion - Tryptophan B (Freestyle 23)] | 0.346
CGGAUGUAGUGAUGUUAUAUUAGAUGUAGACGAGGACCGGUACGGCCGCCACUCGUGACGGCUGCUAGCGCGUUGCGAGGUGUGC [ExTryptoA.Cm] | 0.657
GCCUACGUAGCAGGAUAUAGGUAAGUGAGUGAUGUUCAAGAGUUCUGGAGUGAUGUUCCAAUCUGACUAGAAGGGCUACGUAGGC | 0.0793
AAAAUAAACUAGUGAUGUUGGUGUCCAGAUACCAGCGACGAAAGUCGCCCUUGGCAGCUGUGGACGUACAAAAUAAGUACGUCCU [MatMod 21 - Jieux - Same State - Theophylline A] | 0.345
CAUAGACAAGUGAUGUUUGUCAUAACCGAAGGAGCGUCGUUGAAGACAGGUAGGUCGCGGAUUAAUUAAGAUUAUAUUCUUUUUA [JR_SSArginiA_Sub019] | 0.634
GUAUUGUGAAUGGAUACCAGACACCCGAGUGAUGUUCGGAGCAGAGUGAUGUUCUAAUAAGUCCCUUGGCAGCCGGAAGCAGCCG [Same State Theophylline B GF 3] | 0.34
